- Tested on: 817829-284-R-J1-PDC complex spheroid viability;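 also: spheroids exposed to compounds for 7 days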
- PROTOCOL TEXT: Anticancer human tumor 817829-284-R-J1-PDC patient-derived colon adenocarcinoma cell line growth inhibition [POLQ]
- STUDY CONDITIONS: second compound 0.316 µM; first compound 0.001 µM; hits give low values
viability, T/C vs 90%: less than gives Y; not less than gives N.

# COMPOUND, CATEGORY
records = [
    ("Cn1ncnc1[C@H]1c2n[nH]c(=O)c3cc(F)cc(c23)N[C@@H]1c1ccc(F)cc1 + Cc1cccc(N(C)C(=O)C2C(O)CCN2c2nc(C)cc(C(F)(F)F)c2C#N)c1", "Y"),
    ("CC[C@@]1(O)C(=O)OCc2c1cc1n(c2=O)Cc2cc3c(CN(C)C)c(O)ccc3nc2-1 + COC1C(OC(N)=O)C(O)C(Oc2ccc3c(O)c(NC(=O)c4ccc(O)c(CC=C(C)C)c4)c(=O)oc3c2C)OC1(C)C", "Y"),
    ("Cn1ncnc1[C@H]1c2n[nH]c(=O)c3cc(F)cc(c23)N[C@@H]1c1ccc(F)cc1 + COC1C(OC(N)=O)C(O)C(Oc2ccc3c(O)c(NC(=O)c4ccc(O)c(CC=C(C)C)c4)c(=O)oc3c2C)OC1(C)C", "N"),
    ("CC[C@@]1(O)C(=O)OCc2c1cc1n(c2=O)Cc2cc3c(CN(C)C)c(O)ccc3nc2-1 + Nc1ccc(C#CCN(C(=O)Cc2ncc(C(F)(F)F)cc2C(F)(F)F)c2ccc(F)cc2)nn1", "N"),
    ("CC[C@@]1(O)C(=O)OCc2c1cc1n(c2=O)Cc2cc3c(CN(C)C)c(O)ccc3nc2-1 + Cc1cccc(N(C)C(=O)C2C(O)CCN2c2nc(C)cc(C(F)(F)F)c2C#N)c1", "N"),
]
